- assayedSystem: T1, murine CD22 protein (ACROBiosystems, SI2-M52Ha) (murine, UniProt P35329 22-708)
- T1 construct: extracellular domain; also called murine CD22-ECD; murine CD22-ECD-His
- T1 sequence (looked up): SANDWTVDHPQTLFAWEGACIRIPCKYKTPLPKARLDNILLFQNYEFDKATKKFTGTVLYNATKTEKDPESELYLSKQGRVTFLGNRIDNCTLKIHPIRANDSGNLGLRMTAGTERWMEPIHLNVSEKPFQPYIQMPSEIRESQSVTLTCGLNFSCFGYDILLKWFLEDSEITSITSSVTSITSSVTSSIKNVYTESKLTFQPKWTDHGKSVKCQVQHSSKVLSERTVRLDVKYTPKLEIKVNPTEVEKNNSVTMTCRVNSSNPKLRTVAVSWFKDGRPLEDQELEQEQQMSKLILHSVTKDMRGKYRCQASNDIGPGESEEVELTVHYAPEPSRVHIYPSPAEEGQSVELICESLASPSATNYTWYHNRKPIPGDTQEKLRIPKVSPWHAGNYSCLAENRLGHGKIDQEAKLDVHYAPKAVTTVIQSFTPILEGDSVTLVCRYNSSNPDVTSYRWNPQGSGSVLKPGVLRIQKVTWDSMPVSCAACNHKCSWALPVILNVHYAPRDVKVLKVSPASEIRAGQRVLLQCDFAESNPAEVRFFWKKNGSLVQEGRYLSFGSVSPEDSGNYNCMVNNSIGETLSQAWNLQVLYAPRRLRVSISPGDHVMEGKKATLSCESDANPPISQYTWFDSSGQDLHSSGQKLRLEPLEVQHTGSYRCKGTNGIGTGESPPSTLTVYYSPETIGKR
- measurementDescription: ELISA, coated murine CD22, 0.0001 nM Ab
OD450 reference
quantityKind: OD450 (OD450)

binder	quantityKind	number
F1.216.2 human-murine chimeric antibody (antibody, human IgG1, kappa, V domains shown, Chimeric, human IgG1 / kappa) VH: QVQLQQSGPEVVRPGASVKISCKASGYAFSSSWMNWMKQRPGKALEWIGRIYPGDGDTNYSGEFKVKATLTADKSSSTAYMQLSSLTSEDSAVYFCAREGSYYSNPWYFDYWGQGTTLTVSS VL: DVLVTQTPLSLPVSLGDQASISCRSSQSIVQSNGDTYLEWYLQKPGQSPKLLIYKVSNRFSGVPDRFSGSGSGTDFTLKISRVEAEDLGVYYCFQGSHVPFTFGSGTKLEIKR	OD450	0.06
F1.257.3 human-murine chimeric antibody (antibody, human IgG1, kappa, V domains shown, Chimeric, human IgG1 / kappa; VL tied by name) VH: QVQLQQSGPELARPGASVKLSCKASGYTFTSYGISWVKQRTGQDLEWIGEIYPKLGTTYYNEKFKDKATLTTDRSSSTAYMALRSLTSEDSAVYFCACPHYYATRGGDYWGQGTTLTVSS VL: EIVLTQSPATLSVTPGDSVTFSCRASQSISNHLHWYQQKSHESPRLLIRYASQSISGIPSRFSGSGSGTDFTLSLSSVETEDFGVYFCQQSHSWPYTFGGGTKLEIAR	OD450	0.05
